Target: N-terminally GST-tagged DLK (catalytic domain amino acid 1-520) (Homo sapiens, UniProt Q12852)
Construct: N-terminally GST-tagged DLK (catalytic domain amino acid 1-520)
Sequence (Q12852 1-520): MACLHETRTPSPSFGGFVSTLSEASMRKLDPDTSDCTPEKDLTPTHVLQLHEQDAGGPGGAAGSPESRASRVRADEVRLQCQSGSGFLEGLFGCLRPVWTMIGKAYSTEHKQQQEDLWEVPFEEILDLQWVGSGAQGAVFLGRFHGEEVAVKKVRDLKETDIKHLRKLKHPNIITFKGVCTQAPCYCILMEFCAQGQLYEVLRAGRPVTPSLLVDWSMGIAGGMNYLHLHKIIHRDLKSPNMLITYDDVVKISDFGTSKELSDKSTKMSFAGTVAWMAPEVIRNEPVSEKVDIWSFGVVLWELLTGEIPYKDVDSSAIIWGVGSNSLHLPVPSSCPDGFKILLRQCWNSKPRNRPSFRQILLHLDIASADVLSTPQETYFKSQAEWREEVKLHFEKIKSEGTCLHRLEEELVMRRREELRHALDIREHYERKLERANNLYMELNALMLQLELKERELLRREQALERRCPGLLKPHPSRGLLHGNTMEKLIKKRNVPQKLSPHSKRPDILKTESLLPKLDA
Test: DLK TR-FRET inhibition assay
Conditions: 5 nM GST-DLK, 40 nM HIS-MKK4 K131M substrate, 30 μM ATP, 60 minutes at ambient temperature
Reported Ki by item:
Attribute measured: Ki (nM)

>>> print(df.to_string())
                                   compound  reported_result
0  CC(C)n1nc(-c2cnc(N)c(OC(F)F)c2)cc1C1[C@H]2CC(N3CCOCC(F)C3)C[C@@H]12 (single isomer, unassigned) [compound 175]              5.5
1  CC(C)n1nc(-c2cnc(N)c(C(F)(F)F)c2)cc1[C@H]1[C@@H]2C[C@@H](n3cccn3)C[C@@H]21 [compound 110]             3.89
2  CC(C)n1nc(-c2cnc(N)c(OC(F)F)c2)cc1[C@H]1[C@@H]2C[C@H](N3C[C@@H]4C[C@H]3CO4)C[C@@H]21 [compound 83]             0.12
3  CC(C)n1nc(-c2cnc(N)c(C(F)(F)F)c2)cc1[C@H]1[C@@H]2C[C@@H](N3CC(F)C3)C[C@@H]21 [compound 37]             2.37
4  CC(C)n1nc(-c2cnc(N)c(C(F)(F)F)c2)cc1[C@H]1[C@@H]2C[C@@H](N3CCN(C4COC4)CC3)C[C@@H]21 [compound 117]             5.26
5  CC(C)N1CCN([C@H]2C[C@@H]3[C@H](C2)[C@H]3c2cc(-c3cnc(N)c(OC(F)F)c3)nn2C(C)C)CC1 [compound 177]              1.1
